Counter-ions that a name gives are not always drawn.
This section presents compounds with their documented melting point values.

1. CC(=O)c1ccc(NCC2CCC(=O)NC2=O)cc1 (centres unmarked) [Example 11.16]
160 °C
2. O=C1CCC(NCc2cc(F)cc(F)c2)C(=O)N1 (racemic) (as salt: hydrochloride) [Example 2.5]
230 to 236 °C (dec.)
3. Cc1cccc(CNC2CCC(=O)NC2=O)c1 (racemic) (as salt: hydrochloride) [Example 2.20]
240 to 242 °C
4. CN(Cc1cccc2ccccc12)C1CCC(=O)NC1=O (racemic) [Example 4.5]
157 to 162 °C
5. Cc1cccc(Cl)c1CNC1CCC(=O)NC1=O (racemic) (as salt: hydrochloride) [Example 2.15]
238 to 240 °C
6. CCOc1ccccc1CNC1CCC(=O)NC1=O (racemic) (as salt: hydrochloride) [Example 2.39]
208 to 212 °C
7. O=C1CCC(NCc2ccc(OC(F)(F)F)cc2)C(=O)N1 (racemic) (as salt: hydrochloride) [Example 2.36]
253 to 255 °C
8. O=C1CCC(CNc2ccc(-c3ccccc3)cc2)C(=O)N1 (centres unmarked) [Example 11.4]
135 to 138 °C
9. O=C1CC[C@H](NCc2ccccc2C(=O)Nc2ccccc2)C(=O)N1 (as salt: hydrobromid) [Example 8.7]
136 to 138 °C
10. O=C1CCC(NCc2ccccc2C(F)(F)F)C(=O)N1 (racemic) (as salt: hydrochloride) [Example 2.1]
> 250 °C (dec.)

Kindly indicate its recorded melting point. Item: NC(=O)c1ccccc1CN[C@H]1CCC(=O)NC1=O (as salt: hydrobromid) [Example 8.3]
155 to 156 °C (dec.)

# return recorded melting point for input O=C1CCC(NCc2ccc(Cl)cc2Cl)C(=O)N1 (racemic) (as salt: hydrochloride) [Example 2.28]
240 to 242 °C

Using known records, supply melting point for NNC(=O)c1ccccc1CN[C@H]1CCC(=O)NC1=O (as salt: hydrobromid) [Example 8.6]
241 to 242 °C

Quickly give me recorded melting point for Cc1ccccc1CNC1CCC(=O)NC1=O (racemic) (as salt: hydrochloride) [Example 2.16]
235 to 240 °C

Give the reported melting point for this compound. O=C1CCC(CSCCc2ccccc2)C(=O)N1 (centres unmarked) [Example 13.2]
78 °C

Give recorded melting point. O=C1CCC(CNc2ccc(Br)cc2)C(=O)N1 (centres unmarked) [Example 11.1]
149 to 150 °C

Determine from records and report melting point for O=C1CCC(NCc2ccc3ccccc3c2)C(=O)N1 (racemic) [Example 2.12]
120 to 125 °C (dec.)

Data credit: patent US6656937B2
